system: Vero E6 infected with SARS-CoV-2; test: inhibition of SARS-CoV-2 cytopathic effect; higher = more antiviral protection, active = above 15; conditions: 1 nM; 48 h
measuredEndpoint: inhibition of SARS-CoV-2 cytopathic effect (%)
Unit % implied. Number only.

Prompt: Kindly indicate its recorded inhibition of SARS-CoV-2 cytopathic effect. Item: C[C@@H]1C[C@H]2[C@@H]3CCC4=CC(=O)C=C[C@]4(C)[C@@]3(F)[C@@H](O)C[C@]2(C)[C@@]1(O)C(=O)COP(=O)(O)O
Response: -1.27

Prompt: Kindly indicate its recorded inhibition of SARS-CoV-2 cytopathic effect. Item: C[C@H](NCc1ccc(OCc2cccc(F)c2)cc1)C(N)=O [safinamide]
Response: 4.62

Prompt: Kindly indicate its recorded inhibition of SARS-CoV-2 cytopathic effect. Item: O=C(O)c1ccc(CN2CCC(CN[C@@H]3C[C@H]3c3ccccc3)CC2)cc1
Response: 0.72

Prompt: Kindly indicate its recorded inhibition of SARS-CoV-2 cytopathic effect. Item: COc1ccc(-c2oc3c(CC=C(C)C)c(O)cc(O)c3c(=O)c2O)cc1
Response: -1.11

Prompt: Kindly indicate its recorded inhibition of SARS-CoV-2 cytopathic effect. Item: CC1(C)Oc2ccc(C#N)cc2[C@@H](N2CCCC2=O)[C@@H]1O
Response: 0.65

Prompt: Kindly indicate its recorded inhibition of SARS-CoV-2 cytopathic effect. Item: CCC1(C)CC(=O)NC1=O (centres undefined) [ethosuximide]
Response: -0.56

Prompt: Kindly indicate its recorded inhibition of SARS-CoV-2 cytopathic effect. Item: O=S(=O)(c1cccc2c(O)nccc12)N1CCCNCC1 [hydroxyfasudil]
Response: -1.12

Prompt: Kindly indicate its recorded inhibition of SARS-CoV-2 cytopathic effect. Item: CC(=O)NC[C@H]1CN(c2ccc(-c3ccc(CNCc4cnn[nH]4)cc3)c(F)c2)C(=O)O1
Response: -1.38

Prompt: Kindly indicate its recorded inhibition of SARS-CoV-2 cytopathic effect. Item: CS(=O)(=O)N1CCc2c(-c3cnc(N)nc3)nc(N3CCOCC3)nc21
Response: -2.71

Prompt: Kindly indicate its recorded inhibition of SARS-CoV-2 cytopathic effect. Item: O=C(NNC(=O)c1ccc(CNS(=O)(=O)c2ccc(F)c(Cl)c2)cc1)c1ccccc1
Response: -1.42

Prompt: Kindly indicate its recorded inhibition of SARS-CoV-2 cytopathic effect. Item: c1ccc(CNCc2ccc(CN3CCCNCCNCCCNCC3)cc2)nc1
Response: 0.27

Prompt: Kindly indicate its recorded inhibition of SARS-CoV-2 cytopathic effect. Item: C[C@H]1CO[C@@H]2Cn3cc(C(=O)NCc4ccc(F)cc4F)c(=O)c(O)c3C(=O)N12
Response: 0

Prompt: Kindly indicate its recorded inhibition of SARS-CoV-2 cytopathic effect. Item: Cc1[nH]c(/C=C2\C(=O)Nc3ccc(S(=O)(=O)Cc4c(Cl)cccc4Cl)cc32)c(C)c1C(=O)N1CCC[C@@H]1CN1CCCC1
Response: -0.63

Prompt: Kindly indicate its recorded inhibition of SARS-CoV-2 cytopathic effect. Item: O=C(CCCCCCC(=O)Nc1cccnc1)NO [pyroxamide]
Response: 0.71

Prompt: Kindly indicate its recorded inhibition of SARS-CoV-2 cytopathic effect. Item: CCOC(=O)C1=C[C@@H](OC(CC)CC)[C@H](NC(C)=O)[C@@H](N)C1 [oseltamivir-phosphate]
Response: -2.66

Prompt: Kindly indicate its recorded inhibition of SARS-CoV-2 cytopathic effect. Item: CCCC(C)NC(=O)c1ccc(Cl)c(Cl)c1 (centres undefined)
Response: 1.38

Prompt: Kindly indicate its recorded inhibition of SARS-CoV-2 cytopathic effect. Item: C[C@@H]1CC[C@@]2(OC1)O[C@H]1C[C@H]3[C@@H]4CC=C5C[C@@H](O)CC[C@]5(C)[C@H]4CC[C@]3(C)[C@H]1[C@@H]2C
Response: -0.61

Prompt: Kindly indicate its recorded inhibition of SARS-CoV-2 cytopathic effect. Item: COc1cc2c(cc1OC)-c1cc3ccc(OC)c(OC)c3c[n+]1CC2 [palmatine-chloride]
Response: -2.25

Prompt: Kindly indicate its recorded inhibition of SARS-CoV-2 cytopathic effect. Item: CCCCCCOC(=O)NC(=N)c1ccc(NCc2nc3cc(C(=O)N(CCC(=O)OCC)c4ccccn4)ccc3n2C)cc1 [dabigatran-etexilate]
Response: 1

Prompt: Kindly indicate its recorded inhibition of SARS-CoV-2 cytopathic effect. Item: CCc1cccc(N(C)C(=N)Nc2cccc3ccccc23)c1
Response: 1.52

Prompt: Kindly indicate its recorded inhibition of SARS-CoV-2 cytopathic effect. Item: CC(C)(C)CC(C)(C)c1ccc(O)c(Cc2ccc(Cl)cc2Cl)c1
Response: 3.11

Prompt: Kindly indicate its recorded inhibition of SARS-CoV-2 cytopathic effect. Item: CN1CCc2c(c3ccccc3n2Cc2ccc(C(=O)NO)cc2)C1
Response: -0.32

Prompt: Kindly indicate its recorded inhibition of SARS-CoV-2 cytopathic effect. Item: NC1CCN(c2c(F)cc3c(=O)c(C(=O)O)cn(C4CC4)c3c2Cl)C1 (centres undefined)
Response: 2.47

Prompt: Kindly indicate its recorded inhibition of SARS-CoV-2 cytopathic effect. Item: CCN1C(=O)NC(c2ccccc2)C1=O (centres undefined)
Response: 0.06

Prompt: Kindly indicate its recorded inhibition of SARS-CoV-2 cytopathic effect. Item: O=C(O)c1ccc(NC(=O)[C@H](Cc2ccc(O)cc2)NC(=O)c2ccccc2)cc1 [bentiromide]
Response: -1.4

Prompt: Kindly indicate its recorded inhibition of SARS-CoV-2 cytopathic effect. Item: Oc1cc2c(cc1O)[C@H]1c3ccccc3CN[C@@H]1CC2 (racemic) [dihydrexidine]
Response: -2.37

Prompt: Kindly indicate its recorded inhibition of SARS-CoV-2 cytopathic effect. Item: Fc1cc(-c2cccc3ncc(-c4cnn(C5CCNCC5)c4)nc23)cc(F)c1CN1CCOCC1
Response: 1.49

Prompt: Kindly indicate its recorded inhibition of SARS-CoV-2 cytopathic effect. Item: CCOC(=O)OC(C)OC1=C(C(=O)Nc2ccccn2)N(C)S(=O)(=O)c2ccccc21 (centres undefined)
Response: 1.01

Prompt: Kindly indicate its recorded inhibition of SARS-CoV-2 cytopathic effect. Item: CS(=O)(=O)CCNCc1ccc(-c2ccc3ncnc(Nc4ccc(OCc5cccc(F)c5)c(Cl)c4)c3c2)o1
Response: -1.4

Prompt: Kindly indicate its recorded inhibition of SARS-CoV-2 cytopathic effect. Item: C=CCC1(CC(C)C)C(=O)NC(=O)NC1=O
Response: -0.15

Prompt: Kindly indicate its recorded inhibition of SARS-CoV-2 cytopathic effect. Item: CCC(CC)O[C@@H]1C=C(C(=O)O)C[C@H](N)[C@H]1NC(C)=O [oseltamivir-carboxylate]
Response: -1.71

Prompt: Kindly indicate its recorded inhibition of SARS-CoV-2 cytopathic effect. Item: COc1cc([C@@H]2c3cc4c(cc3[C@@H](O[C@@H]3O[C@@H]5CO[C@@H](C)O[C@H]5[C@H](O)[C@H]3O)[C@H]3COC(=O)[C@H]23)OCO4)cc(OC)c1O [etoposide]
Response: 6.79

Prompt: Kindly indicate its recorded inhibition of SARS-CoV-2 cytopathic effect. Item: CC1C=CC=CCCC=CC=CC=CC=CC(OC2OC(C)C(O)C(N)C2O)CC2OC(O)(CC(O)C(O)CCC(O)CC(O)CC(O)CC(=O)OC(C)C(C)C1O)CC(O)C2C(=O)O (centres undefined)
Response: 0.06

Prompt: Kindly indicate its recorded inhibition of SARS-CoV-2 cytopathic effect. Item: C[C@@H]1CN(Cc2ncccn2)C[C@H]1c1nc2c(cnn2C2CCOCC2)c(=O)[nH]1
Response: -1.78
